Tested on: HCT-15 colon
Test protocol: NCI-60 one-dose screen, 48 h (100 = growth as untreated, 0 = no growth, -100 = all killed)
Recorded conditions: 10 µM unless noted
This is part of a sample that, as a whole, favours compounds with a hit. Of some 83,000 tested, about 20% had one in any assay.
Hi there, I'd appreciate the recorded growth for every entry that follows.
Numbers only, in %.

CS(=O)(=O)c1nccc(-c2c(-c3ccc(F)c(OCc4ccccc4)c3)nc3sccn23)n1 :: 79.1
CCOC(=O)c1c(NC(=O)c2ccc(F)cc2F)sc2c1CCC(=O)C2 :: 80.6

Next:
Please report the measured growth for `C=C(C)[C@@H]1CC[C@]2(C(=O)ON)CC[C@]3(C)[C@H](CC[C@@H]4[C@@]5(C)C/C(=C/c6ccc(Br)cc6)C(=O)C(C)(C)[C@@H]5CC[C@]43C)[C@@H]12` tested on HCT-15 colon.
57.8

###

Kindly state growth for each of the entries shown.
Tested on: SK-MEL-5 melanoma
Test protocol: NCI-60 one-dose screen, 48 h (100 = growth as untreated, 0 = no growth, -100 = all killed)
Recorded conditions: 10 µM unless noted
This is part of a sample that, as a whole, favours compounds with a hit. Of some 83,000 tested, about 20% had one in any assay. Calls of active or inactive are those of the source. How the source made its calls: active means growth percent below 10; inactive means the rest.

The following compounds have reported results that may help.
O=C1C[C@@H](c2ccccc2)Oc2c(Cc3ccccc3O)c(O)c(Cc3cc(Cc4cc(Cc5ccccc5O)ccc4O)ccc3O)c(O)c21 :: 98.6% (inactive)
Cc1cc(=O)n2nc(-c3cn(C)c4ccc(Cl)cc34)sc2n1 :: 88.8% (inactive)
O=C(CSc1nnc(-c2cccs2)n1-c1ccccc1)Nc1ccc(F)cc1 :: 97.6% (inactive)
C/C(=C(/C)C1CC1CCN(C(=O)c1ccc([N+](=O)[O-])cc1)S(=O)(=O)c1ccc(C)cc1)C1CCCCC1 (stereo unspecified) :: 99.4% (inactive)

Take each entry in turn and give its growth.
1. COc1ccc(/C(C)=C(\c2ccc(Cl)cc2)c2ccc(OCCN)cc2)cc1
2. N#C/C(=C\c1ccc(N2CCCCC2)cc1)C(=O)Nc1sc2c(c1C#N)CCC2

1. 96.7% (inactive)
2. 98.7% (inactive)

###

System: NCI-H460 lung
Test protocol: NCI-60 one-dose screen, 48 h (100 = growth as untreated, 0 = no growth, -100 = all killed)
Recorded conditions: 10 µM unless noted
The panel holds about 83,000 compounds, 20% with a hit somewhere; the sample as a whole holds those more often.
Output rule met for records whose growth is lower than 80%, rule not met for records at or above 80%.

Reference set, count: 8
CCN1C(=O)N(CC)C2SC(N/N=C/C=C/c3ccccc3OC)=NC21 (stereo not given) :: rule met
COc1ccc2c(C3=C(c4cn(C)c5ccccc45)C(=O)NC3=O)coc2c1 :: rule met
COc1cc(/C=N/n2cnc3oc(-c4ccccc4)cc3c2=N)cc(CN2CCN(C)CC2)c1O :: rule not met
Cc1ccc(NC(=O)c2ccc(CN3CCN(C)CC3)c(C(F)(F)F)c2)cc1Oc1ccc(-c2[nH]nc3ncnc(N)c23)cc1 :: rule not met
O=C(N/N=C\c1ccc(Cl)cc1)c1ccc2nc(-c3ccc(Br)cc3)[nH]c2c1 :: rule met
CCN1C/C(=N\S(=O)(=O)c2ccccc2)N(CC)C1=S :: rule not met
COc1cc(NC2=C(Cl)C(=O)c3nc(C)ccc3C2=O)cc(OC)c1 :: rule met
Cc1ccc(/C=C/CC(=O)Nc2ccc(C(=O)Nc3ccc(F)cc3N)nc2)cn1 :: rule met

Item `Clc1ccc(-c2nc3ccc(/C(=N\N=C\c4ccccc4)c4ccccc4)cc3[nH]2)cc1` : growth beneath 80%, strictly?
rule not met

Determine if `Nc1nc(-c2cccc([N+](=O)[O-])c2)c(N=Nc2ccccc2[N+](=O)[O-])s1` shows growth strictly lower than 80%.
rule met

Please let me know if `Oc1ccc(CSc2nnc(-c3ccc(Oc4ccccc4)cc3)o2)c2cccnc12` shows growth below 80%.
rule met

Please indicate whether the reported growth of `COc1ccc(-c2nc(SCCC(C)C)nc(N/N=C\c3ccc(O)cc3)c2C#N)cc1` is strictly below 80%.
rule met

Lab note: confirm whether the reported growth for this molecule is below 80%, equality not counting. molecule: `Cc1cc(F)cc(NS(=O)(=O)c2ccc(-c3cnc(C4CC4)o3)cc2)c1`
rule met

Given the entry C#CCOc1ccccc1C(Nc1ccccc1)c1nnnn1C1CCCCC1 (stereo not given) , would its reported growth be below 80%?
rule not met
